Tested on: Escherichia coli TOP10;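 also: peptides expressed intracellularly from a pBAD plasmid library in pooled LB shake-flask culture, induced with 0.3% L-arabinose, DNA abundance read by NGS, three biological replicates, DESeq2 with apeglm shrinkage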
Test: shrunken log2 fold change of peptide-encoding DNA abundance (4.5 h post-induction vs induction); higher = less antimicrobial activity (less host growth inhibition)
Details: time post-induction: 4.5 h; library: site-saturation at positions 5, 18, 19, 20
observationType: shrunken log2 fold change
Reply with just the number.

Answer with reported shrunken log2 fold change of RRIRQRPPRLPRPRPRPHPWPRP
0.0242

Answer with reported shrunken log2 fold change of RRIRPRPPRLPRPRPRPQFMPRP
-0.259

Answer with reported shrunken log2 fold change of RRIRNRPPRLPRPRPRPCQCPRP
-0.00992

Answer with reported shrunken log2 fold change of RRIRCRPPRLPRPRPRPHKEPRP
-0.334

Answer with reported shrunken log2 fold change of RRIRVRPPRLPRPRPRPIQTPRP
-0.0164

Answer with reported shrunken log2 fold change of RRIRFRPPRLPRPRPRPKNRPRP
-0.284

Answer with reported shrunken log2 fold change of RRIRTRPPRLPRPRPRPDHVPRP
-0.0634

Answer with reported shrunken log2 fold change of RRIRNRPPRLPRPRPRPGYAPRP
-0.0974
